The reported numbers originate from patent US20120329707A1.

Kindly supply the reported EC50 (nM) at GLP-1 receptor values for the records listed here.
- target_or_test_system: GLP-1 receptor
- method_description: cell-based or functional assay
Numbered stars: 1 amine (or outer) side, 2 acyl side, 3 side chain; on linkers, the order of the positions; unused ones are H or OH. Square brackets hold non-standard residues; d marks the D form. Primed or numbered codes have the meaning given here. Side chains are listed from the residue outwards. Ends that are not written are not given here. * marks the point of attachment. 40K‑TE PEG = 40 kDa PEG covalently bound via thioether, formed by reaction of the free thiol of the peptide (Cys side chain) with an iodoacetic-functionalized PEG; 40K‑TE PEG″ = 40 kDa PEG bound to Cys via thioether made from an iodoacetyl-functionalised PEG; EDTA amide = ethylenediaminetetraacetic acid amide, O=C(O)CN(CCN(CC(=O)O)CC(=O)*)CC(=O)O; 20K‑TE PEG = 20 kDa PEG bound via thioether from iodoacetic-functioned PEG; γGlu = O=C(O)[C@H](CCC(=O)[*:2])N[*:1]; Palmitoyl = CCCCCCCCCCCCCCCC(=O)*; Aib = CC(C)(N)C(=O)O
Returns: string containing the numeric result and its unit.

Give measured EC50 (nM) at GLP-1 receptor for every item shown.
1. H[dS]QGTFTSDK([γGlu-Palmitoyl])SKYLDEQAAKEFIC(20K‑TE PEG)WLLDT-NH2 [peptide of SEQ ID NO: 44]
2. H[Aib]QGTFTSDK([γGlu-γGlu-Palmitoyl])SKYLD[Aib]RAAQDFVQWLMKTK[dE]-OH [peptide of SEQ ID NO: 37]
3. H[Aib]QGTFTSDYSKYLDEKRA[Aib]EFVC(40K‑TE PEG)WLLDGGPSSGAPPPS-NH2 [peptide of SEQ ID NO: 47]

1. 0.017 nM
2. 0.016 nM
3. 0.052 nM

For every item in the list below, what is its measured EC50 (nM) at GLP-1 receptor?
1. H[Aib]QGTFTSDYSKYLDEKRA[Aib]EFVC(40K‑TE PEG)WLL[Aib]GGPSSGAPPPS-NH2 [peptide of SEQ ID NO: 51]
2. H[dA]QGTFTSDK([γGlu-Palmitoyl])SKYLDERAAQDFVQWLLDT-NH2 [peptide of SEQ ID NO: 56]
3. H[Aib]QGTFTSDYSKYLDEKRA[Aib]EFV[Aib]WLLC(40K‑TE PEG)T-NH2 [peptide of SEQ ID NO: 42]

0.062 nM
0.02 nM
0.117 nM

Each of the following entries comes with a recorded value; kindly state EC50 (nM) at GLP-1 receptor for each.
1. H[Aib]QGTFTSDK([γGlu-γGlu-Palmitoyl])SKYLD[Aib]RAAQDFVQWLMDTK[dA]-OH [peptide of SEQ ID NO: 32]
2. H[Aib]QGTFTSDYSKYLD[Aib]KRA[Aib]EFVC(40K‑TE PEG″)WLLDT-NH2 [peptide of SEQ ID NO: 38]
3. H[dS]QGTFTSDK([γGlu-Palmitoyl])SKYLDERAAQDFVQWLLDGRK-NH2 [peptide of SEQ ID NO: 28]
4. H[dS]QGTFTSDK(EDTA amide)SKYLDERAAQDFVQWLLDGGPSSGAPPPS-NH2 [peptide of SEQ ID NO: 55]
5. Ac-H[dS]QGTFTSDK([γGlu-Palmitoyl])SKYLDERAAQDFVQWLLDT-NH2 [peptide of SEQ ID NO: 21]

1. 0.008 nM
2. 0.31 nM
3. 0.003 nM
4. 0.108 nM
5. 0.009 nM
